Source of measurements: PubChem BioAssay (NCI)

Assay: NCI Yeast Anticancer Drug Screen. Data for the wt2 strain (AID 169);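 further: 0% = growth of vehicle-treated yeast cultures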
Settings: S. cerevisiae wt2 strain growth inhibition; at 100.0 µM; active compounds read high
About 79,000 compounds went through this panel and 15% of them were active in at least one assay; those are over-represented in the sample as a whole.
ENDPOINT_NAME: growth inhibition (%)
Please state the figure in %; there is no need to write the unit.

Worked examples follow.
// query growth inhibition value for entry `Cc1c(Cl)ccc2c1S(=O)(=O)c1cccc(Cl)c1-2` -25

And `CCC/C(Cl)=N\OC(=O)Nc1ccc(Br)cc1` ? 99

Cool, now `CCOC(=O)c1cnc2cc(C(F)(F)F)ccc2c1N=[N+]=[N-]` 93

New cases:
I'd like to know its growth inhibition. The compound in question is `CCC(=O)OCCn1c2nc(=O)[nH]c(=O)c-2nc2cc(C)c(C)cc21` 93

====

Experiment: NCI Yeast Anticancer Drug Screen. Data for the rad50 strain (AID 155);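 further: 0% = growth of vehicle-only cultures of the same strain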
Settings: S. cerevisiae rad50 strain growth inhibition; at 3.7 µM
Description: Growth inhibition of yeast strains with defined genetic alterations is measured as a screen for potential anti-cancer activity. Selected strains with alterations in DNA damage repair or cell cycle control were exposed to compounds and growth inhibition was measured relative to vehicle treated controls. The strain used in this assay is rad50
Compounds without any hit were thinned out: in the full panel of roughly 79,000, 15% have a hit. The source made the active and inactive calls. Rule as the data show it: active = growth inhibition above about 70%; inactive = the rest.
Outcome field: choose from 1 = active, -1 = inactive

# example entries with known answers
I would be grateful if you could indicate the recorded call for `CC(=O)OCCOCNC(=S)N/N=C(\C)c1cnccn1` . -1

Please answer likewise for `O=C(N=Nc1ccccc1Cl)NNc1ccccc1Cl` -1

Try this compound next: `CCN(CC)CCN1C(=O)c2cccc3cc(OC)cc(c23)C1=O` -1

Next:
Could you please tell me the result logged for CCCCCCCCCCCCCC[N+](C)(CC(=O)[O-])Cc1ccccc1 (configuration not stated) in this assay? -1

Query CC(/C=C/c1ccc2c(c1)OCO2)[N+](=O)[O-] (configuration not stated) next 1

Then this compound: `Cc1nc(-[n+]2nc(-c3ccncc3)nn2-c2ccccc2)sc1C` -1

Now give it for `CC(=O)Nc1ccc(/C=C(\C#N)c2ccc(C)cc2)cc1` too. -1

====

Assay: NCI Yeast Anticancer Drug Screen. Data for the rad14 strain (AID 159);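 further: 0% = growth of vehicle-treated control cultures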
Conditions: S. cerevisiae rad14 strain growth inhibition; at 1.2 µM; active compounds read high
About 79,000 compounds went through this panel and 15% of them were active in at least one assay; those are over-represented in the sample as a whole. Active and inactive are the calls of the source. Cut-off read from the data, not from the text of the source: active = growth inhibition above about 70%; inactive = the rest.
ENDPOINT_NAME: growth inhibition

Given `Cc1ccc(Cl)c2[nH]c(-c3ccccc3)cc(=O)c12` , state its recorded growth inhibition. -2% (inactive)

And what about the molecule `CC(=O)Cc1ccc[cH-]1.[Fe+2].c1cc[cH-]c1` ? 0% (inactive)

Please do the same for `COc1ccc2sc3cccc(NCCN(C)C)c3c(=O)c2c1` as well. -1% (inactive)

Param item: `CN(CCc1ccccn1)c1ccc2c(c1)Cc1ccccc1-2` 1% (inactive)

---
Would you kindly share the measured growth inhibition for `CSC1=NNC(SC)=NN1` ? -16% (inactive)

What do you have for CN1c2ccc(Cl)cc2C(=O)NC1c1ccc([N+](=O)[O-])s1 (stereo unspecified) ? -8% (inactive)

====

Assay: NCI Yeast Anticancer Drug Screen. Data for the sgs1 strain (AID 173);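 further: 0% = growth of vehicle-only control cultures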
Conditions: S. cerevisiae sgs1 mutant, at 1.2 µM
Procedure: Growth inhibition of yeast strains with defined genetic alterations is measured as a screen for potential anti-cancer activity. Selected strains with alterations in DNA damage repair or cell cycle control were exposed to compounds and growth inhibition was measured relative to vehicle treated controls. The strain used in this assay is sgs1
Compounds without any hit were thinned out: in the full panel of roughly 79,000, 15% have a hit. Active and inactive are the calls of the source. Cut-off read from the data, not from the text of the source: active = growth inhibition above about 70%; inactive = the rest.
Result category, one only: active, inactive

What did the test return for `CN(C)C[C@H]1CC[C@@H](CN(C)C)C1=O` ? inactive

What do you get for `COc1ccc2c(c1)C(=O)c1ccccc1C2` ? inactive

Then this molecule: `O=C(Nc1ccc(Cl)cc1)OCC#CCCl` active

More entries:
GET /call?item= `C[C@@H]1C[C@H]2[C@@H]3CCC4=CC(=O)C=C[C@]4(C)[C@@]3(Cl)[C@@H](Cl)C[C@]2(C)[C@@]1(O)C(=O)COP(=O)(O)O` returns the recorded outcome of this test. inactive

# repeat for `C/C(=N/NC(=S)N1CCCCCC1)c1cccc(/C(C)=N\NC(=S)N2CCCCCC2)n1` inactive

Then CCOC(=O)[C@H]1Nc2ccccc2C2c3ccccc3CC21 (stereo partly drawn) ? inactive

Record: `COc1ccc(-c2cn(-c3ccc(I)cc3)c3ncnc(N)c23)cc1` inactive

Queued: CNC1C(OC2C(OC3C(O)C(O)C(N=C(N)N)C(O)C3N=C(N)N)OC(C)C2(O)CO)OC(CO)C(O)C1O (stereo not drawn) inactive

What would you report for `O=[N+]([O-])c1cccc2nc3ccccc3c(NCCCN3CCOCC3)c12` ? active

Repeat for the following molecule: `Clc1cccc(C(Nc2nncs2)Nc2nncs2)c1Cl` inactive

Same for `CN(C)Cc1cc(N=Nc2ccc(Cl)cc2)cc(CN(C)C)c1O` inactive

Now consider `CCCCN(CCCC)CCSc1ccc(Cl)cc1` and answer again. inactive

// same read-out, input: CC(=O)OC1CCC2(C)C(=CCC3C4CCC5(OC6CC(C)CN(C(C)=O)C6C5C)C(C)=C4C(=O)C32)C1 (stereo not drawn) inactive

Input `O=C([O][Sn]([O]C(=O)c1ccccc1)([c]1ccccc1)[c]1ccccc1)c1ccccc1` inactive

Moving on to C=C1CC(Cn2cc(Br)c(=O)[nH]c2=O)(c2ccc(-c3ccccc3)cc2)OC1=O (stereo not drawn) inactive

Now the same for `C#CCCCc1ccccc1` inactive

Next molecule up: `Cc1cc(I)ccc1N` inactive

Follow-up entry: `O=C1C=CC(=Nc2ccc3c(c2)Cc2cc(NC(=O)C(F)(F)F)ccc2-3)O1` inactive

Item: O=C1OC(=O)C2CCCC3CCCC1C32 (stereo not drawn) inactive

And the next one, `Nc1ccc2c(c1)C(=O)c1cccc(N)c1C2=O` ? inactive

Next: `COc1ccc(OC)c2cc3ccccc3cc12` inactive

Consider next the molecule `CC1=C(C)Cc2c(O)ccc(O)c2C1` in the same way. inactive

And then `CCC(=O)OCCn1c2nc(=O)[nH]c(=O)c-2nc2cc(C)c(C)cc21` , what is it? inactive

Similarly, `Cc1cc2c(cc1C(=O)CCC(=O)O)CC1(C2)Cc2cc(C)c(C(=O)CCC(=O)O)cc2C1` ? inactive

====

Experiment: NCI Yeast Anticancer Drug Screen. Data for the sgs1 strain (AID 173);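 further: 0% = growth of vehicle-only control cultures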
Conditions: S. cerevisiae sgs1 mutant, at 11.0 µM, active compounds read high
About 79,000 compounds went through this panel and 15% of them were active in at least one assay; those are over-represented in the sample as a whole.
ENDPOINT_NAME: growth inhibition (%)
# value in %; strip the unit string

Below: 10 compounds and their reported growth inhibition.
Return reported growth inhibition; argument: `Oc1c(Br)cc(Br)cc1C1CCCCC1` 10

Next: `Cn1c(=O)c(-c2ccccc2)c(N=[N+]=[N-])c2ccccc21` 13

Repeat for the following compound: `CCC(=O)c1cccc2ccccc12` 4

Quick one: Clc1ccccc1C1OC1c1ccccc1Cl (centres undefined) -81

What about `Cc1c(C2=C(Br)C(=O)N(C)C2=O)c(=O)n(C)c(=O)n1C` ? 22

Follow-up item: `c1ccc2c(c1)sc1nc3ccncc3nc12` 3

Param item: `Cc1cc(I)ccc1N` 4

Continue with `CCOc1ccc2c(c1)c(CC(=O)O)cn2C` 21

Here is the next compound: `FC(F)(F)c1nc2nc(Cl)c(Cl)nc2n1CCCN1CCOCC1` 30

And CC(Br)C(=O)c1ccc2cc(Br)c3ccccc3c2c1 (centres undefined) ? 14

---
Return reported growth inhibition; argument: `COC(=O)CCNc1c2ccccc2nc2cccc([N+](=O)[O-])c12` 98

====

Experiment: NCI Yeast Anticancer Drug Screen. Data for the wt2 strain (AID 169);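 further: 0% = growth of vehicle-treated yeast cultures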
Settings: S. cerevisiae wt2 strain growth inhibition; at 3.7 µM; active compounds read high
About 79,000 compounds went through this panel and 15% of them were active in at least one assay; those are over-represented in the sample as a whole.
ENDPOINT_NAME: growth inhibition (%)
State the answer as a number, implicitly in %.

State the recorded growth inhibition for this entry: O=[N+]([O-])CC(SCc1ccccc1)c1ccc2c(c1)OCO2 (configuration not stated) 8

Can you handle `COc1cc2c(cc1[N+](=O)[O-])C(=O)C(Br)(Br)CCC2` next? 11

Next: `Cc1ccc(Nc2nc3c(=O)n(C)c(=O)n(C)c3nc2Nc2ccc(C)cc2)cc1` -1

One more compound: `Cc1ccc(S(=O)(=O)NCCSS(=O)(=O)c2ccc(C)cc2)cc1` -17

Cool, now `COc1ccc2c(c1)C(=O)c1ccccc1C2` 3

New cases:
Consider the compound `CCCCCCCCCCC(=O)Cl` and give its measured growth inhibition. 1

Cool, now `O=C(NCCCCCCCN1CCCCCCC1)C(C1CCCCC1)C1CCCCC1` 56
